Catalogue of pKd values
# target-of-assay: T1, recombinant human HGF (R&D Systems, Catalog No. 294-HGN-025) (human, UniProt P14210 32-728)
# T1 construct: Mature HGF is a disulfide-linked heterodimer of alpha and beta chain cut from one precursor; also called rhHGF (R&D Systems); rhHGF
# T1 sequence (P14210 32-728 limits assumed): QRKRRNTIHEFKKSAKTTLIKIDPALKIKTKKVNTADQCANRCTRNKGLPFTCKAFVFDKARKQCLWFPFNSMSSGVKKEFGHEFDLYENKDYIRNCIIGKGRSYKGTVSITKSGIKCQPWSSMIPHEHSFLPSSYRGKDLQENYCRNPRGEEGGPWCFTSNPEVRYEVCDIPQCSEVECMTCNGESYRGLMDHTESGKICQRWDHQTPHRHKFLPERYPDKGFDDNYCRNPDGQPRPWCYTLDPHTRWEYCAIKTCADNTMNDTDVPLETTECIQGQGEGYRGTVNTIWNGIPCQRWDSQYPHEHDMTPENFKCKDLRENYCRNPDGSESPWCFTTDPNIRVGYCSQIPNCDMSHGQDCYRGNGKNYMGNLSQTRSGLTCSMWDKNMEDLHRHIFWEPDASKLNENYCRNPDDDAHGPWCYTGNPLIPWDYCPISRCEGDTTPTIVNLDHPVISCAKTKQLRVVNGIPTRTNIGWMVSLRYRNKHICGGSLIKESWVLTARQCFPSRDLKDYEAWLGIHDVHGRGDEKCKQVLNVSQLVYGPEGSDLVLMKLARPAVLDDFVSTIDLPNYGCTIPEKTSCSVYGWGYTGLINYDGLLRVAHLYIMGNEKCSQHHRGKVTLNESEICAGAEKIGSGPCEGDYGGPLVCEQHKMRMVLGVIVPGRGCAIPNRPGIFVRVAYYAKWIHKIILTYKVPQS
# experiment: SPR, captured antibody, HGF injected, 25 C
# pKd: negative log10 of molar concentration; output just the value

binder	pKd
HE2B8-2 (LR2B8HC + IgG1 constant region G1m(3) allotype allele 1, plus LRMR2B8LC + Kappa constant region Km(3) allotype allele 1) (antibody, V domains shown, Human Engineered 2B8 variant, human IgG1 kappa, made in HEK293E cells) VH: QVQLVQPGAEVVKPGTSVKLSCKASGYTFTTYWMHWVNQAPGQGLEWIGEINPTNGHTNYNEKFKGKATLTVDKSTSTAYMELSSLRSEDTAVYYCARNYVGSIFDYWGQGTLLTVSS VL: DIVMTQSPDSLAMSLGERVTLNCKASENVVSYVSWYQQKPGQSPKLLIYGASNRESGVPDRFSGSGSATDFTLTISSVQAEDVADYHCGQSYNYPYTFGQGTKLEIKR	11.28
HE2B8-3 (LRMR2B8HC + IgG1 constant region G1m(3) allotype allele 1, plus LR2B8LC + Kappa constant region Km(3) allotype allele 1) (antibody, V domains shown, Human Engineered 2B8 variant, human IgG1 kappa, made in HEK293E cells) VH: QVQLVQPGAEVKKPGTSVKLSCKASGYTFTTYWMHWVRQAPGQGLEWIGEINPTNGHTNYNQKFQGRATLTVDKSTSTAYMELSSLRSEDTAVYYCARNYVGSIFDYWGQGTLLTVSS VL: DIVMTQSPDSMAMSVGERVTLNCKASENVVSYVSWYQQKPGQSPKLLIYGASNRNTGVPDRFSGSGSATDFTLTISSVQAEDVADYHCGQSYNYPYTFGQGTKLEIKR	11.70
HE2B8-1 (LR2B8HC + IgG1 constant region G1m(3) allotype allele 1, plus LR2B8LC + Kappa constant region Km(3) allotype allele 1) (antibody, V domains shown, Human Engineered 2B8 variant, human IgG1 kappa, made in HEK293E cells) VH: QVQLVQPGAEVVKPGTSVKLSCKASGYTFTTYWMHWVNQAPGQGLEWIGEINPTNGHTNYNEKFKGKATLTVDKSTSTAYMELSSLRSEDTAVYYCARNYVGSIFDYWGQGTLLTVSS VL: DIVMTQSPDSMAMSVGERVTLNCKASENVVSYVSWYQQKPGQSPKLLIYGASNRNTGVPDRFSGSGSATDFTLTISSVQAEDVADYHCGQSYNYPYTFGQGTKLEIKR	11.15

// below: pKd requested for another binder
Request: Find the recorded pKd belonging to HE2B8-4 (LRMR2B8HC + IgG1 constant region G1m(3) allotype allele 1, plus LRMR2B8LC + Kappa constant region Km(3) allotype allele 1) (antibody, V domains shown, Human Engineered 2B8 variant, human IgG1 kappa, made in HEK293E cells) VH: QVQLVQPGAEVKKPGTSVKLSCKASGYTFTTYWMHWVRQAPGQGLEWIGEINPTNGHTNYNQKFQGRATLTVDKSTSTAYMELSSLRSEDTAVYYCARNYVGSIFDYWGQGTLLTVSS VL: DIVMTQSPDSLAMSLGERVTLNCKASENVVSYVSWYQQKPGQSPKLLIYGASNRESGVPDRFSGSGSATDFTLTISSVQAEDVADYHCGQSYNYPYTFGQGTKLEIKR and report it.
Response: 11.19
